target: Aspartate--tRNA(Asp/Asn) ligase (Mycobacterium tuberculosis (strain ATCC 25618 / H37Rv)); experiment: Assay for Asp RNA synthetase-1 from Mycobacterium tuberculosis; assay type: functional; design: scale not given: in the data most compounds retested in dose-response had high values; conditions: 30 µM
OBSERVED_PROPERTY: Percent Effect (%)
Write the number in % without appending the unit.

Prompt: Given the entry CN(CCn1nc2ccccn2c1=O)CC(=O)N1CCCC1 , report its measured Percent Effect.
Completion: -1.5

Prompt: Requested field: Percent Effect. Item: CC(C)C(Sc1nnc(C2CC2)n1C1CC1)C(=O)NCc1cccnc1 (stereo not drawn)
Completion: -2.03

Prompt: Any idea what its Percent Effect is? The compound is Cn1ccc(C(=O)N2CCC(Cc3cccc4cccnc34)C2)n1 (stereo not drawn)
Completion: -7.19

Prompt: What does the data say about its Percent Effect? Entry: O=C([C@H]1C[C@H]2OCC[C@H]2N(Cc2cccnc2)C1)N1CCCO1
Completion: 5.55

Prompt: Find the recorded Percent Effect belonging to COc1ccc(OCC(=O)NC(C)c2ccccc2)c(C(=O)O)c1 (stereo not drawn) and report it.
Completion: -1.11

Prompt: Report Percent Effect for COc1ccc(COCC(O)CNC(=O)c2cccnc2)cc1 (stereo not drawn) please.
Completion: -1.27

Prompt: What value of measured Percent Effect is listed for Cc1cnn(CC2CCCCN2C(=O)CN(C)C2CC2)c1 (stereo not drawn) ?
Completion: 2.98

Prompt: Item under review: CN(C)C(=O)c1ccc(CNC(=O)NCCN(C)C2CCCC2)cc1 . Reported Percent Effect?
Completion: 1.57

Prompt: What does the record list as Percent Effect for CCn1ncc2c1CCCC2NCc1cccc2c1OCCO2 (stereo not drawn) ?
Completion: -2.02

Prompt: Request the reported Percent Effect associated with CCc1nc(C2CCCN2C(=O)CCn2cncn2)no1 (stereo not drawn)
Completion: 3.36

Prompt: Which measured Percent Effect value corresponds to O=C(c1ccn(-c2cccc(F)c2)n1)N1CCCC(n2cccn2)C1 (stereo not drawn) ?
Completion: -2.68

Prompt: Which Percent Effect is reported for this compound? O=C1CO[C@@H]2CN(CC3CCOCC3)C[C@H]2N1CC1CC1
Completion: 14.8

Prompt: May I ask what Percent Effect has been recorded for CC(C)C(=O)NC1CCN(Cc2cccc3c2OCCO3)CC1 ?
Completion: -1.32

Prompt: # query: Percent Effect of entry Cc1nc(CN2C[C@@H]3CN(C(=O)c4ccnnc4)C[C@@H]3C2=O)cs1
Completion: -3.71

Prompt: Fill in: Percent Effect of O=C(O)c1cc(S(=O)(=O)Nc2cc(F)ccc2F)cc2c1OCCO2 is ___
Completion: -2.5

Prompt: Given the entry CC1CN(C)c2ccccc2CN1C(=O)c1ccncc1 (stereo not drawn) , report its measured Percent Effect.
Completion: 6.3

Prompt: Which Percent Effect value is on record for COc1cc(C(=O)N2CCCS2(=O)=O)cc(Cl)c1OC ?
Completion: -11.2

Prompt: Which Percent Effect is listed for CCCS(=O)(=O)NCc1cccnc1OCC ?
Completion: -1.52

Prompt: Bench note: what Percent Effect did CCOc1c(Cl)cccc1NCc1cc(C)on1 show?
Completion: -1.21

Prompt: Look at this compound and give its reported Percent Effect. Cc1ccc(OCCC(=O)N2CCN(c3cnccn3)CC2)cc1C
Completion: -0.856

Prompt: Need Percent Effect, item c1cncc(COC[C@H]2CC[C@H]3[C@H](CCN3Cc3cccs3)O2)c1
Completion: 6.9

Prompt: What value of Percent Effect has been recorded for this entry: CC(=O)NCC(=O)N1C[C@H](OCc2cccnc2)[C@H]2COC[C@H]21
Completion: -1.31

Prompt: Suppose we examine the compound O=C(C(CNCc1ccncc1)c1ccccc1)N1CCOCC1 (stereo not drawn) ; what Percent Effect value has been reported?
Completion: 11.7

Prompt: # query: Percent Effect of entry CCOC1COC2(CCN(Cc3ccc4c(c3)OCO4)CC2)C1 (stereo not drawn)
Completion: -3.53

Prompt: GET /values?readout=Percent Effect&item= CCOc1ncccc1C(=O)N1CCCCC1c1nccs1 (stereo not drawn)
Completion: -1.77

Prompt: What does the record list as Percent Effect for CCn1ccnc1CN1CCN(Cc2ccccn2)CC1C (stereo not drawn) ?
Completion: -1.39

Prompt: // returns reported Percent Effect for input Cc1ccoc1C(=O)N1CCO[C@H]2[C@H](OCCN(C)C)CC[C@@H]21
Completion: -1.25

Prompt: Looking for the measured Percent Effect of CN(C)Cc1nc(C(C)(C)NC(=O)C2CC(=O)N(CC3CC3)C2)no1 (stereo not drawn) , can you help?
Completion: -5.01

Prompt: Fill blank: measured Percent Effect of the compound CC(O)CN1CCN(C(=O)c2ccc(N(C)C)nc2)CC1 (stereo not drawn) is ____.
Completion: 1.24

Prompt: Any idea what Percent Effect was measured for COc1ccccc1[C@@H]1CN(Cc2cc(C(C)(C)C)[nH]n2)C[C@H]1C(=O)O ?
Completion: 1.28

Prompt: Name the recorded Percent Effect for CCC1=N[C@@]2(CC[C@@H]3CN(S(=O)(=O)CC)C[C@@H]32)C(=O)N1CC(C)C .
Completion: 2.06

Prompt: Recorded Percent Effect of c1cnn(CC2CCCCN2c2ncnc3sccc23)c1 (stereo not drawn) , please.
Completion: 2.59

Prompt: Need Percent Effect, item Cc1occc1CNC(=O)N(CCCO)C1CCc2ccccc21 (stereo not drawn)
Completion: -3.25

Prompt: May I ask what Percent Effect has been recorded for CN(Cc1ccc(F)cc1)CC1(O)CCCN(CC(C)(C)C)C1=O (stereo not drawn) ?
Completion: -0.167

Prompt: So what's the measured Percent Effect for this one? O=C(NCCn1ccc(-c2ccncc2)n1)c1ccncc1
Completion: 1.52

Prompt: Query (compound): COCCn1ccc(=O)c(OCC(=O)Nc2ccccc2)c1C ; field requested: Percent Effect
Completion: -0.61

Prompt: Fill in: Percent Effect of c1ccc(N2CCCC3(COCCN(c4nccs4)C3)C2)nc1 (stereo not drawn) is ___
Completion: 3.08

Prompt: Requested read-out: Percent Effect. Entry: Cc1cccc(-c2nc(CN3CCc4cnc(C)nc4C3)no2)c1
Completion: 4.76

Prompt: So what does the record say about Percent Effect for CCCNC(=O)c1cc2c(c3ccccc3n2C)n1C(=O)N(C)C ?
Completion: 2.3

Prompt: Tell me the measured Percent Effect of CS(=O)(=O)CC(=O)N1C[C@@H]2COC[C@]2(c2nnc(C3CC3)o2)C1 , please.
Completion: -1.72

Prompt: Recorded Percent Effect of COc1cc(CNCc2c(C)nn(C)c2N(C)C)ccc1C , please.
Completion: -3.09

Prompt: Please report the recorded Percent Effect for CC(=O)N1N=C(c2ccccc2)OC1C(=O)NCCc1cccc(Cl)c1 (stereo not drawn) .
Completion: -3.19

Prompt: Suppose we examine the compound O=C1NC2(CCN(Cc3nccs3)CC2)CC1c1ccncc1 (stereo not drawn) ; what Percent Effect value has been reported?
Completion: 0.717

Prompt: Percent Effect for CS(=O)(=O)NCCCN1CCCC1Cc1ccccc1 (stereo not drawn) ?
Completion: -3.08

Prompt: Data request, read-out Percent Effect, for CCc1c(C)nn(CCNC(=O)C2CCCN(C(=O)N(C)C)C2)c1C (stereo not drawn)
Completion: -4.11

Prompt: # get_value(readout='Percent Effect', item= Cc1nc(CN2CCCN(C(=O)C(C)OCC3CC3)CC2)cs1 (stereo not drawn) )
Completion: -3.97

Prompt: Would you kindly share the measured Percent Effect for Cc1ncc(CNCC2CCCN2c2cccnn2)s1 (stereo not drawn) ?
Completion: 0.684

Prompt: Data request, read-out Percent Effect, for Cc1ccc2cc(CNCCCN3CCOCC3)c(=O)[nH]c2c1
Completion: -2.01
